Values were extracted from PubChem BioAssay AID932.

test: STAT1 signaling activators, primary screen, cell-based, HTS, luciferase reporter (AID 932); details: NIH 3T3 STAT1-luciferase reporter, IFN-gamma, luminescence; at 5.5 µM; active compounds read high; 100% = IFN-gamma alone, no compound;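 note: raw ratio to IFN-gamma control signal so 100% means no change and 0% no light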
Screen size: about 200,000 compounds; about 5,100 (2.5%) were called active. The entries come from a sample that favours actives as a whole.
measure: activation (% of control) (%)
Respond with the bare value in %.

**Query** Write down activation (% of control) measured for item CN(C)c1ccc2c(=O)[nH][nH]c(=O)c2c1
**Result** 103

**Query** Write down activation (% of control) measured for item Cc1occc1C(=O)NNC(=S)NCC(C)C
**Result** 102

**Query** Write down activation (% of control) measured for item CC(=O)Nc1ccc(/C(C)=N/NC(=O)CN(c2ccccc2Br)S(C)(=O)=O)cc1
**Result** 97.6

**Query** Write down activation (% of control) measured for item CNC(=O)/C(C#N)=C/c1c(F)cccc1Cl
**Result** 82.9

**Query** Write down activation (% of control) measured for item COc1ccccc1-c1cc(C(=O)NCCCn2ccnc2)no1
**Result** 112

**Query** Write down activation (% of control) measured for item CC(C)CNC(=S)NC(=O)c1ccc(Cl)cc1
**Result** 136

**Query** Write down activation (% of control) measured for item CC(C)C(NC(=O)c1ccc(Cl)cc1)C(=O)O (configuration not stated)
**Result** 110

**Query** Write down activation (% of control) measured for item c1ccc(CSc2nnc(-c3ccco3)n2Cc2ccccc2)cc1
**Result** 144

**Query** Write down activation (% of control) measured for item O=C(C[n+]1ccccc1)N/N=C/c1ccc(O)cc1
**Result** 97.6

**Query** Write down activation (% of control) measured for item Cc1ccc(OCC(=O)NC(C)c2ccccc2)c([N+](=O)[O-])n1 (configuration not stated)
**Result** 117

**Query** Write down activation (% of control) measured for item Cc1cccc(-n2c(O)c(C=Nc3ccccc3N)c(=O)[nH]c2=O)c1
**Result** 156

**Query** Write down activation (% of control) measured for item Cc1ccc(N=Cc2c(O)n(-c3nccs3)c(=O)c3ccccc23)c(C)c1
**Result** 105
